- TEST_DETAILS: physchem
- Format: physicochemical
- TEST_PARAMETERS: pH 2.1, water
No end group written: not given here.
QUANTITY: solubility (mg/mL)
Just the number in mg/mL, nothing appended.

Ask | Need solubility of KTPKKAKKPKTPKKAKKP [H] , thanks.
Reply | 10

====

- TEST_DETAILS: physchem
- Format: physicochemical
- TEST_PARAMETERS: pH 2.1, water
QUANTITY: solubility (mg/mL)
Field: numeric (mg/mL). Do not append units.

Ask | What solubility value was documented for this molecule, CC(C)[C@H](NC(=O)[C@H](CCCCN)NC(=O)[C@H](CCCNC(=N)N)NC(=O)[C@H](CCCCN)NC(=O)[C@H](CCCCN)NC(=O)[C@H](CCCCN)NC(=O)[C@@H]1CCCN1)C(=O)O [nls, ProLysLysLysArgLysVal] ?
Reply | 100

====

- TEST_DETAILS: physchem
- Type: physicochemical
- TEST_PARAMETERS: water
No end group written: not given here.
QUANTITY: solubility (mg/mL)
Give just the numeric value; mg/mL need not be written.

Ask | Look at this sequence and give its reported solubility. ATPAKKAAATPAKKAA [N]
Reply | 100
